Hey, just so you know, these numbers are from ChEMBL document CHEMBL1201862.

# Test system: PC-3
# assay-text: NCI tumour cell line growth inhibition, 48 h
Activity calls are given as the source filed them. Cut-off read from the data, not from the text of the source: active = GI50 up to about 1.1 µM and inactive = higher.
Recorded GI50 by entry

compound: CCCCc1ccc(Nc2nc(N)c3[nH]cnc3n2)cc1
GI50: 15 µM (inactive)
--
compound: COc1cc2c(cc1OC)[C@@H]1[C@H](C#N)C(=O)C(C)(C)N1CC2
GI50: > 100 µM (inactive)
--
compound: O=[N+]([O-])/C(C(Cl)=C(Cl)Cl)=C(\Nc1cccc2ccccc12)n1nnc2ccccc21
GI50: 47.1 µM (inactive)
--
compound: CC(=O)OC1C2CCC3C(C)(O)C4CC(O)C(C)(C)C4(O)C(O)CC13CC2(C)O (stereo unspecified)
GI50: > 100 µM (inactive)
--
compound: COc1cc(C2SCC(=O)N2c2ccc(Cl)cc2)cc(OC)c1OC (stereo unspecified)
GI50: 46.2 µM (inactive)
--
compound: Cc1cc(C)cc(Nc2nnc3n2S(=O)(=O)c2cc(C)c(Cl)cc2S3)c1
GI50: 2.77 µM (inactive)
--
compound: CCOC(=O)CCCc1cc(O)c2c(C)c3[nH]c4ccc(Cl)cc4c3c(C)c2n1
GI50: 28.8 µM (inactive)
--
compound: Cn1c(-c2ccccc2)cc(-c2ccsc2)c1-c1ccsc1
GI50: > 100 µM (inactive)
--
compound: C/C(=N\Nc1nc2ccccc2s1)c1cccc[n+]1[O-]
GI50: 33 µM (inactive)
--
compound: CN(C(=O)[C@@H](NC(=O)OC(C)(C)C)c1ccccc1)[C@H]1CCCC[C@@H]1N1CCCC1
GI50: > 100 µM (inactive)
--
compound: CCCc1c(-c2ccccc2)[nH]c2ccccc2c1=O
GI50: > 100 µM (inactive)

---

# System: HT-29
# assay-text: NCI tumour cell line growth inhibition, 48 h
The source made the active and inactive calls. Rule as the data show it: active = GI50 up to about 1.1 µM and inactive = higher.
Recorded GI50 by entry
observation-type: GI50

compound: Cc1ccc(S(=O)(=O)OC2=C/C(=N\c3onc(C)c3C)c3ccccc3C2=O)cc1
observation-type: GI50
experimental-result: 34.2 µM (inactive)

compound: Cn1cc(-c2n[nH]c(-c3ccc(Cl)cc3)nc2=O)c2ccccc21
observation-type: GI50
experimental-result: 2.19 µM (inactive)

compound: CCCCc1ccc(Nc2nc(N)c3[nH]cnc3n2)cc1
observation-type: GI50
experimental-result: 13.8 µM (inactive)

compound: O=c1[nH]nc(Cc2ccccc2)n1/N=C/c1ccncc1
observation-type: GI50
experimental-result: > 100 µM (inactive)

compound: Nc1n[n+]([O-])c2cnccc2[n+]1[O-]
observation-type: GI50
experimental-result: 39.1 µM (inactive)

compound: CCN(CC)Cc1ccc(Nc2c3ccccc3nc3ccccc23)cc1
observation-type: GI50
experimental-result: 1.91 µM (inactive)

compound: O=c1c2cc(S(=O)(=O)Nc3c(Cl)cccc3Cl)ccc2ncn1NS(=O)(=O)c1ccc2ccccc2c1
observation-type: GI50
experimental-result: 16.4 µM (inactive)

compound: CC[C@@H]1CN2CCC1C[C@@H]2C(O)c1ccnc2ccc(OCCN3CCN(CCOc4ccc5nccc(C(O)[C@@H]6C[C@@H]7CCN6C[C@@H]7CC)c5c4)CC3)cc12 (stereo partly specified)
observation-type: GI50
experimental-result: 15.7 µM (inactive)

compound: CC(=O)OCC1OC(OC2CC3C(C)(C)C(O)CC[C@]3(C)C3CCC45CC4(CC[C@H]5C(C)CC(O)C4OC4(C)C)[C@]23C)C(O)C(O)C1O (stereo partly specified)
observation-type: GI50
experimental-result: 8.38 µM (inactive)

compound: Cc1ccccc1/N=N/c1ccc(/N=N/c2c(O)ccc3ccccc23)c(C)c1 [SCARLET RED]
observation-type: GI50
experimental-result: > 100 µM (inactive)

compound: C=CCN1C(=O)/C(=C/c2ccc(OC)cc2)N=C1SC1OC(COC(C)=O)C(OC(C)=O)C(OC(C)=O)C1OC(C)=O (stereo unspecified)
observation-type: GI50
experimental-result: 8.45 µM (inactive)

---

Recorded GI50 by entry
# Test system: SF-295
# assay-text: NCI tumour cell line growth inhibition, 48 h
Active and inactive are the calls of the source. No stated cut-off is given here; in the data, active = GI50 up to about 1.1 µM and inactive = higher.
observation-type: GI50

compound: C[C@]12C[C@H](c3ccccc3)Nc3ccccc3N1C(c1ccccc1)=NO2
assayed-target: SF-295
observation-type: GI50
experimental-result: 22.5 µM (inactive)

compound: O=C(O)c1cc(S(=O)(=O)N/N=C\c2c3ccccc3[n+]([O-])c3ccccc23)ccc1O
assayed-target: SF-295
observation-type: GI50
experimental-result: 4.45 µM (inactive)

compound: CC1(C)[C@H]2Cc3cc(-c4cc5c(cn4)[C@@H]4C[C@H]([C@@H]5[C@@H]5c6cc(-c7cc8c(cn7)[C@@H]7C[C@H](C8)C7(C)C)ncc6[C@@H]6C[C@H]5C6(C)C)C4(C)C)ncc3[C@@H]1C2
assayed-target: SF-295
observation-type: GI50
experimental-result: > 100 µM (inactive)

compound: O=C1Oc2cc3c(c4cccc1c24)OCN(c1ccc(Cl)cc1)C3
assayed-target: SF-295
observation-type: GI50
experimental-result: 48 µM (inactive)

compound: O=C1C(Cl)=C(Cl)C(=O)N1c1ccc(F)cc1 [FLUOROIMIDE]
assayed-target: SF-295
observation-type: GI50
experimental-result: > 53.2 µM (inactive)

compound: C=C1CCCCCCCCCCC12SCCC2CCCCSC (stereo unspecified)
assayed-target: SF-295
observation-type: GI50
experimental-result: 19.9 µM (inactive)

compound: CCC1=CC(OCc2ccccc2)C(CCN(Cc2ccccc2)C(=O)OCc2ccccc2)C1 (stereo unspecified)
assayed-target: SF-295
observation-type: GI50
experimental-result: 14.8 µM (inactive)

compound: CC1(C)CC(=O)/C(=C/C2CCNC2=S)C(=O)N1 (stereo unspecified)
assayed-target: SF-295
observation-type: GI50
experimental-result: > 100 µM (inactive)

compound: COCN/C(N)=N/C#N
assayed-target: SF-295
observation-type: GI50
experimental-result: > 100 µM (inactive)

compound: CCOP(=O)(Nc1ccc(-c2ccc(N)cc2)cc1)OCC
assayed-target: SF-295
observation-type: GI50
experimental-result: 84.5 µM (inactive)

compound: CCCCn1cc[n+](-c2nc3ccccc3n2C)c1
assayed-target: SF-295
observation-type: GI50
experimental-result: > 100 µM (inactive)

compound: CCN(CC)c1ccc(/N=C2\C=C(Cl)C(=O)c3ncccc32)c(C)c1
assayed-target: SF-295
observation-type: GI50
experimental-result: 15.6 µM (inactive)

compound: CSCSCC(CO)NC(=O)/C(C)=C\c1c(C)[nH]c(=O)[nH]c1=O (stereo unspecified)
assayed-target: SF-295
observation-type: GI50
experimental-result: > 250 µM (inactive)

compound: CN(C)CCCn1c(Cc2ccc(Cl)cc2)nc2cc(C(F)(F)F)ccc21
assayed-target: SF-295
observation-type: GI50
experimental-result: 17.5 µM (inactive)

compound: CC(=O)OC12CC(C(F)(F)F)(C(F)(F)F)OC1(OC(C)=O)CC(C(F)(F)F)(C(F)(F)F)O2 (stereo unspecified)
assayed-target: SF-295
observation-type: GI50
experimental-result: 6.76 µM (inactive)

compound: CCCCc1ccc(Nc2ncc3ncn(COCCO)c3n2)cc1
assayed-target: SF-295
observation-type: GI50
experimental-result: 27.3 µM (inactive)

compound: O=C1[C@H]2ON(c3ccccc3)C(c3cccc([N+](=O)[O-])c3)[C@H]2C(=O)N1c1ccc(Cc2ccc(N3C(=O)[C@@H]4ON(c5ccccc5)C(c5cccc([N+](=O)[O-])c5)[C@@H]4C3=O)cc2)cc1 (stereo partly specified)
assayed-target: SF-295
observation-type: GI50
experimental-result: > 100 µM (inactive)

compound: O=C1NC2OCC(O)C(O)C2O1 (stereo unspecified)
assayed-target: SF-295
observation-type: GI50
experimental-result: > 100 µM (inactive)

compound: O=C(CCCCCCCCC(=O)OCCCn1cc(C(=O)NC(=O)OCc2ccccc2)c(=O)[nH]c1=O)OCCCn1cc(C(=O)NC(=O)OCc2ccccc2)c(=O)[nH]c1=O
assayed-target: SF-295
observation-type: GI50
experimental-result: > 100 µM (inactive)

compound: COC12OCCN(C)C1=CC(=O)C1=NNC(C)C12 (stereo unspecified)
assayed-target: SF-295
observation-type: GI50
experimental-result: > 100 µM (inactive)

compound: n1onc2c1NC1Nc3nonc3NC1N2 (stereo unspecified)
assayed-target: SF-295
observation-type: GI50
experimental-result: > 100 µM (inactive)

compound: O=C(O)CC(NC(=O)C(F)(F)F)C(=O)NC1Cc2ccccc2OC1=O (stereo unspecified)
assayed-target: SF-295
observation-type: GI50
experimental-result: > 100 µM (inactive)

compound: CCOC1OC(CO[Si](C)(C)C(C)(C)C)C(O)CC1n1ccc(=O)[nH]c1=O (stereo unspecified)
assayed-target: SF-295
observation-type: GI50
experimental-result: > 100 µM (inactive)

compound: O[C@]12c3ccccc3C1CCCCC2N1CCOCC1 (stereo partly specified)
assayed-target: SF-295
observation-type: GI50
experimental-result: > 100 µM (inactive)

compound: CC[n+]1c(/C=C/c2ccc(N(CCCl)CCCl)cc2)ccc2cc(I)ccc21
assayed-target: SF-295
observation-type: GI50
experimental-result: 2.04 µM (inactive)

compound: O=C(Nc1nnc(-c2ccc(Cl)cc2)o1)C(SC(=S)N1CCOCC1)c1ccccc1 (stereo unspecified)
assayed-target: SF-295
observation-type: GI50
experimental-result: 13.1 µM (inactive)

compound: O=C(NCCCCCCCCNC(=O)Nc1cccc2ccccc12)Nc1cccc2ccccc12
assayed-target: SF-295
observation-type: GI50
experimental-result: 28.5 µM (inactive)

compound: CCCCCCCCCCCc1cc(=O)c2c(O)cccc2o1
assayed-target: SF-295
observation-type: GI50
experimental-result: 87.5 µM (inactive)

compound: CCN(CC)C(=O)CCCCCCCCC1CO1 (stereo unspecified)
assayed-target: SF-295
observation-type: GI50
experimental-result: > 100 µM (inactive)

compound: CN1CCc2[nH]c3ccccc3c2C1
assayed-target: SF-295
observation-type: GI50
experimental-result: > 100 µM (inactive)

compound: O=C(COC(=O)c1cccc2c(=O)c3ccccc3[nH]c12)Nc1ccc(C(=O)O)cc1
assayed-target: SF-295
observation-type: GI50
experimental-result: > 100 µM (inactive)

compound: ClCCCN1CCCCC1CCl (stereo unspecified)
assayed-target: SF-295
observation-type: GI50
experimental-result: 70.1 µM (inactive)

compound: CC(=O)OC1CCn2c1nc1c2C(=O)C=C(N2CC2)C1=O (stereo unspecified)
assayed-target: SF-295
observation-type: GI50
experimental-result: 1.81 µM (inactive)

compound: Cc1ccccc1/N=N/c1ccc(/N=N/c2c(O)ccc3ccccc23)c(C)c1
assayed-target: SF-295
observation-type: GI50
experimental-result: 56.8 µM (inactive)

compound: O=C(O)C(=Cc1ccnc2ccccc12)C(=O)O
assayed-target: SF-295
observation-type: GI50
experimental-result: > 100 µM (inactive)

compound: Cc1[nH]c2ncn(/N=C/c3ccccc3)c(=N)c2c1Cc1ccccc1
assayed-target: SF-295
observation-type: GI50
experimental-result: > 100 µM (inactive)

compound: C=CC1(c2ccc3ccccc3c2)OCC(CC)O1 (stereo unspecified)
assayed-target: SF-295
observation-type: GI50
experimental-result: 61.5 µM (inactive)

compound: CC1C(=O)C23OC[C@@]1(C)C1(O)CC[C@@H](C)[C@]21CC3=O (stereo partly specified)
assayed-target: SF-295
observation-type: GI50
experimental-result: > 100 µM (inactive)

compound: Oc1ccc2ccccc2c1CN(Cc1c(O)ccc2ccccc12)C1CCCCC1
assayed-target: SF-295
observation-type: GI50
experimental-result: 37 µM (inactive)

compound: CC(=O)Nc1sc(Br)cc1S(=O)(=O)c1ccc(Cl)cc1
assayed-target: SF-295
observation-type: GI50
experimental-result: 31.2 µM (inactive)

compound: CCOC(=O)c1c(SCCN2CCOCC2)n(-c2ccccc2)c(=S)n(-c2ccccc2)c1=O
assayed-target: SF-295
observation-type: GI50
experimental-result: 25.6 µM (inactive)
